tested_system: UniProt P04049
Sequence (P04049 whole entry): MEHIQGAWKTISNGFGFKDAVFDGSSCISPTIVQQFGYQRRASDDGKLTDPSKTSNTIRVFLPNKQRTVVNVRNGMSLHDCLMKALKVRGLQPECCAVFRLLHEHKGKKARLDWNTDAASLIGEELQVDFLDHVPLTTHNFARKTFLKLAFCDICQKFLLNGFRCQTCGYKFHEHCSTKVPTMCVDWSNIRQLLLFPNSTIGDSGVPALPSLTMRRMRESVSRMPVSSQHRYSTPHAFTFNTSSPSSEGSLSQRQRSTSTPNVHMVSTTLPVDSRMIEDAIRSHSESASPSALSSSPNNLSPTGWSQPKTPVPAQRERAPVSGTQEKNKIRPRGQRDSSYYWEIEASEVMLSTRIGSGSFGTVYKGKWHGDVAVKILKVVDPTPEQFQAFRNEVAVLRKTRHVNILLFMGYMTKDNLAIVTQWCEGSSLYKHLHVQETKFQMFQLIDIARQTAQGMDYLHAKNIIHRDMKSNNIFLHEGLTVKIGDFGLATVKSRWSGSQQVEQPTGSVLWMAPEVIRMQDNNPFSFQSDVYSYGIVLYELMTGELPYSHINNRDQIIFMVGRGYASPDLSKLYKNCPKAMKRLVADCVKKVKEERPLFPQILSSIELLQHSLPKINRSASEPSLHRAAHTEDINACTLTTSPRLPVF
assay_metric: IC50 (nM)

molecule="Cc1ccc(NC(=O)c2ccnc(C(F)(F)F)c2)cc1-c1cc(OCCO)nc(N2CCOCC2)c1 [COMPOUND A]" readout_number=0.2

----------
tested_system: UniProt P15056
Sequence (P15056 2-766): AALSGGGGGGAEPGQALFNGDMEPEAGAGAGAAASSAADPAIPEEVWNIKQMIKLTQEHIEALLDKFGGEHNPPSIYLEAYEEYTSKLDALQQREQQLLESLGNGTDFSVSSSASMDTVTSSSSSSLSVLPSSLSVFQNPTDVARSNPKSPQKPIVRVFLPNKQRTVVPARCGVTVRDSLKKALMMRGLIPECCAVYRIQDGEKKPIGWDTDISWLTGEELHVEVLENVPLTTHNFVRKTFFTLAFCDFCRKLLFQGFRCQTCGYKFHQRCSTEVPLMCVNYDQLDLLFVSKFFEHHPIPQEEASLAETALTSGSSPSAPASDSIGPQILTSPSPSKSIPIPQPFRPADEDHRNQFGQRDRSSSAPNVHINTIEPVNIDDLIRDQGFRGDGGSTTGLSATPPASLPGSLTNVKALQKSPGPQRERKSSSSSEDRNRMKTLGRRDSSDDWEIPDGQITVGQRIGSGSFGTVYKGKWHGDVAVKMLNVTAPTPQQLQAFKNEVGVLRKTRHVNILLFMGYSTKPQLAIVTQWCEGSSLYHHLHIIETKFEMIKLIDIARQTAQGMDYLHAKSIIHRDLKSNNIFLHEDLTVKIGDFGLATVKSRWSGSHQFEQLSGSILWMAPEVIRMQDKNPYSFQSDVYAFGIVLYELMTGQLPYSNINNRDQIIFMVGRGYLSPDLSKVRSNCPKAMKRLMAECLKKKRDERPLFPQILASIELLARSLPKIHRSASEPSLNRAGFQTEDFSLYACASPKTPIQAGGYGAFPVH
pIC50: −log10 of the molar value.
assay_metric: pIC50

compound=Cc1ccc(NC(=O)c2ccnc(C(F)(F)F)c2)cc1-c1cc(OCCO)nc(N2CCOCC2)c1 tested_system="UniProt P15056" assay_metric=pIC50 readout_number=9.14
